Origin of the recorded values: patent US20250302815A1

molecular target: PTPN2 (HiBIT-PTPN2 in 293T.109 cells) (Homo sapiens, UniProt P17706); construct: expressed in transfected cells; host or cells: 293T.109 (293T WT from ATCC); assay: HiBiT Degradation 293T.109 PTPN2 (Nano-Glo HiBiT Lytic Assay); type: cell-based; conditions: 24.0 hours
Sequence (P17706 whole entry, species assumed): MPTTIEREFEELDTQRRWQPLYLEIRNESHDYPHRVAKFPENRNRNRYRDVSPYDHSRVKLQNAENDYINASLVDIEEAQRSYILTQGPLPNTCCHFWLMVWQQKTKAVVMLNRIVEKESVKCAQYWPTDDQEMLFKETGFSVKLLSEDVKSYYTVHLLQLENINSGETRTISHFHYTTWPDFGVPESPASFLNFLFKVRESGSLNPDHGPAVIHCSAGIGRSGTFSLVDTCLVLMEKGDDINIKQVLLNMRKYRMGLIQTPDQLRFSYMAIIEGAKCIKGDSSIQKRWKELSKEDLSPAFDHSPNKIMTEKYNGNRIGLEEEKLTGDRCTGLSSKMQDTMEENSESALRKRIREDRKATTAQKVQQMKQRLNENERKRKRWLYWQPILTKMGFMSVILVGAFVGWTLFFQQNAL
Below: a set of entries, each annotated with reported DC50.

Example entries and their recorded answers appear below.
Cn1c(=O)n(C2CCC(=O)NC2=O)c2ccc(C#CCNC(=O)Nc3cccc(CS(=O)(=O)N4CC[C@H](Nc5cccc(-c6sc(C(=O)O)c(OCC(=O)O)c6Cl)c5)CC4(C)C)c3)cc21 (stereo partly drawn) [Example 91] ... 50 to 200 nM
CC1(C)C[C@@H](Nc2cccc(-c3sc(C(=O)O)c(OCC(=O)O)c3Cl)c2)CCN1S(=O)(=O)Cc1cccc(NC(=O)N2CCC(Cc3ccc4c5c(cccc35)C(=O)N4C3CCC(=O)NC3=O)CC2)c1 (stereo partly drawn) [Example 158] ... 50 to 200 nM
CC1(C)C[C@@H](Nc2cccc(-c3sc(C(=O)O)c(OCC(=O)O)c3Cl)c2)CCN1S(=O)(=O)Cc1cccc(NC(=O)N2CCC[C@H](c3ccc4c5c(cccc35)N(C3CCC(=O)NC3=O)C4=O)CC2)c1 (stereo partly drawn) [Example 223] ... 200 to 1000 nM

For the compound Cn1c(=O)n(C2CCC(=O)NC2=O)c2ccc(-c3cnn(CC(=O)Nc4cccc(CS(=O)(=O)N5CC[C@H](Nc6cccc(-c7sc(C(=O)O)c(OCC(=O)O)c7Cl)c6)CC5(C)C)c4)c3)cc21 (stereo partly drawn) [Example 194] , the measured DC50 on PTPN2 (HiBIT-PTPN2 in 293T.109 cells) (Homo sapiens, UniProt P17706) was 200 to 1000 nM

For the compound CC1Cc2cc(C3CCN(C(=O)Nc4cccc(CS(=O)(=O)N5CC[C@H](Nc6cccc(-c7sc(C(=O)O)c(OCC(=O)O)c7Cl)c6)CC5(C)C)c4)CC3)ccc2N1C1CCC(=O)NC1=O (stereo partly drawn) [Example 95] , the measured DC50 on PTPN2 (HiBIT-PTPN2 in 293T.109 cells) (Homo sapiens, UniProt P17706) was 200 to 1000 nM

For the compound O=C(O)COc1c(C(=O)O)sc(-c2cccc(NC3CCN(S(=O)(=O)Cc4cccc(NC(=O)N5CCC(Nc6cccc7c6CN(C6CCC(=O)NC6=O)C7=O)CC5)c4)CC3)c2)c1Cl (stereo not drawn) [Example 59] , the measured DC50 on PTPN2 (HiBIT-PTPN2 in 293T.109 cells) (Homo sapiens, UniProt P17706) was 200 to 1000 nM

For the compound CC1(C)C[C@H](Nc2cccc(-c3sc(C(=O)O)c(OCC(=O)O)c3Cl)c2)CCN1S(=O)(=O)Cc1ccc(F)c(NC(=O)N2CCC(c3ccc4c5c(cccc35)C(=O)N4C3CCC(=O)NC3=O)CC2)c1 (stereo partly drawn) [Example 127] , the measured DC50 on PTPN2 (HiBIT-PTPN2 in 293T.109 cells) (Homo sapiens, UniProt P17706) was 200 to 1000 nM

For the compound CC1(C)C[C@@H](Nc2cccc(-c3sc(C(=O)O)c(OCC(=O)O)c3Cl)c2)CCN1S(=O)(=O)Cc1cccc(NC(=O)N2CCN(C(=O)CNc3cccc4c3CN(C3CCC(=O)NC3=O)C4=O)CC2)c1 (stereo partly drawn) [Example 62] , the measured DC50 on PTPN2 (HiBIT-PTPN2 in 293T.109 cells) (Homo sapiens, UniProt P17706) was 50 to 200 nM

For the compound Cn1c(=O)n(C2CCC(=O)NC2=O)c2ccc(-c3cccc(CC(=O)Nc4cccc(CS(=O)(=O)N5CC[C@H](Nc6cccc(-c7sc(C(=O)O)c(OCC(=O)O)c7Cl)c6)CC5(C)C)c4)c3)cc21 (stereo partly drawn) [Example 192] , the measured DC50 on PTPN2 (HiBIT-PTPN2 in 293T.109 cells) (Homo sapiens, UniProt P17706) was 50 to 200 nM
